tested on: PC-3; test: Antimigratory activity against human PC3 cells assessed as inhibition of cell migration after 24 hrs by wound healing assay; assay type: functional, cell-based; details: PC-3, 24 h, read-out: IC50
pIC50: −log10 of the molar value.
// reported pIC50 per item
observation-type: pIC50

C=C1C[C@H]2O[C@H]([C@H]3[C@@H]2[C@](C)(OC(C)=O)CC[C@@H]3C(C)C)[C@@]2(C)CC[C@]1(O)O2 [PACHYCLADIN E]
4.19
C=C1C[C@H]2O[C@H]([C@H]3[C@@H]2[C@]2(CC[C@@H]3C(C)C)CO2)[C@](C)(O)CC[C@@H]1OC(=O)N(Cc1ccccc1)C(=O)NCc1ccccc1
4.15
C=C1CC[C@H](C(C)C)[C@@H]2[C@H]1[C@H]1CC(=C)[C@@H](OC(=O)NCCCCCCCC)CC[C@@](C)(O)[C@@H]2O1
3.91
C=C1CC[C@H](C(C)C)[C@@H]2[C@H]1[C@H]1CC(=C)[C@@H](OC(=O)NCCCC)CC[C@@](C)(O)[C@@H]2O1
4.43
C=C1C[C@H]2O[C@H]([C@H]3[C@@H]2[C@]2(CC[C@@H]3C(C)C)CO2)[C@](C)(O)CC[C@@H]1O (relative stereo)
3.80
C=C1C[C@H]2O[C@H]([C@H]3[C@@H]2[C@]2(CC[C@@H]3C(C)C)CO2)[C@](C)(O)CC[C@@H]1OC(=O)NCCCC (relative stereo)
4.05
C=C1CC[C@H](C(C)C)[C@@H]2[C@H]1[C@H]1CC(=C)[C@@H](OC(C)=O)CC[C@@](C)(OC(C)=O)[C@@H]2O1
4.44
C=C1CC[C@H](C(C)C)[C@@H]2[C@H]1[C@@H]1CC(=C)[C@@H](O)CC[C@](C)(O)[C@H]2O1 [CLADIELLISIN]
4.06
C=C1C[C@H]2O[C@H]([C@@H]3[C@@H](C(C)C)[C@H](O)C[C@@](C)(OC(=O)CCC)[C@@H]32)[C@](C)(OC(C)=O)CC[C@@H]1O [PACHYCLADIN B]
4.06
CCCC(=O)O[C@]1(C)CC[C@H](C(C)C)[C@@H]2[C@H]1[C@H]1C[C@](C)(O)[C@@H](O)CC[C@@](C)(OC(C)=O)[C@@H]2O1 [PACHYCLADIN A]
5.30
C=C1CC[C@H](C(C)C)[C@@H]2[C@H]1[C@H]1CC(=C)[C@@H](O)CC[C@@](C)(OC(C)=O)[C@@H]2O1
4.36
